target: WD repeat-containing protein 5 (Homo sapiens, UniProt P61964); assay: Displacement of N-(4'-((17-(5,5-difluoro-7-(1H-pyrrol-2-yl)-5H-5l4,6l4-dipyrrolo[1,2-c:2',1'-f][1,3,2]diazaborinin-3-yl)-15-oxo-4,7,10-trioxa-14-azaheptadecyl)carbamoyl)-4-(4-methylpiperazin-1-yl)-[1,1'-biphenyl]-3-yl)-6-hydroxy-4-(trifluoromethyl)nicotinamide tracer from N-/C-terminal NanoLuc-fused full-length WDR5 (unknown origin) transfected in HEK293T cells incubated for 2 hrs by NanoBRET assay; format: cell-based
pIC50: −log10 of the molar value.
Property label: pIC50

Query: Field request: pIC50 | item: Cc1ncsc1-c1ccc(CNC(=O)[C@@H]2C[C@@H](O)CN2C(=O)[C@@H](NC(=O)CCOCCOc2ccc(-c3cn4c(n3)CCC4)cc2CNC(=O)Cc2ccc(Cl)c(Cl)c2)C(C)(C)C)cc1
Result: ≤ 4.30

Query: Field request: pIC50 | item: COc1cc(C(=O)NCCOCCOCCOCCOCCOCCOCCOCCNC(=O)c2ccc(-c3ccc(N4CCN(C)CC4)c(NC(=O)c4c[nH]c(=O)cc4C(F)(F)F)c3)cc2)ccc1NC(=O)[C@@H]1N[C@@H](CC(C)(C)C)[C@](C#N)(c2ccc(Cl)cc2F)[C@H]1c1cccc(Cl)c1F
Result: ≤ 4.30

Query: Field request: pIC50 | item: Cc1ncsc1-c1ccc(CNC(=O)[C@@H]2C[C@@H](O)CN2C(=O)[C@@H](NC(=O)CCOCCOCCOCCOCCOCCOc2ccc(-c3cn4c(n3)CCC4)cc2CNC(=O)Cc2ccc(Cl)c(Cl)c2)C(C)(C)C)cc1
Result: ≤ 4.30

###

Would you mind telling me the reported deltaTm of each entry?
Answer format: numeric, K implied, no suffix.

Query: Form field - read-out: deltaTm; system: UniProt P61964; submitted item: Cc1ncsc1-c1ccc(CNC(=O)[C@@H]2C[C@@H](O)CN2C(=O)[C@@H](NC(=O)CCOCCOCCOCCOCCOCCOc2ccc(-c3cn4c(n3)CCC4)cc2CNC(=O)Cc2ccc(Cl)c(Cl)c2)C(C)(C)C)cc1
Result: 4.3

Query: Form field - read-out: deltaTm; system: UniProt P61964; submitted item: COc1cc(C(=O)NCc2ccc(CNC(=O)c3ccc(-c4ccc(N5CCN(C)CC5)c(NC(=O)c5c[nH]c(=O)cc5C(F)(F)F)c4)cc3)cc2)ccc1NC(=O)[C@@H]1N[C@@H](CC(C)(C)C)[C@](C#N)(c2ccc(Cl)cc2F)[C@H]1c1cccc(Cl)c1F
Result: 0.7

Query: Form field - read-out: deltaTm; system: UniProt P61964; submitted item: Cc1ncsc1-c1ccc(CNC(=O)[C@@H]2C[C@@H](O)CN2C(=O)[C@@H](NC(=O)CCOCCOc2ccc(-c3cn4c(n3)CCC4)cc2CNC(=O)Cc2ccc(Cl)c(Cl)c2)C(C)(C)C)cc1
Result: 7

Query: Form field - read-out: deltaTm; system: UniProt P61964; submitted item: COc1cc(C(=O)NCCOCCNC(=O)c2ccc(-c3ccc(N4CCN(C)CC4)c(NC(=O)c4c[nH]c(=O)cc4C(F)(F)F)c3)cc2)ccc1NC(=O)[C@@H]1N[C@@H](CC(C)(C)C)[C@](C#N)(c2ccc(Cl)cc2F)[C@H]1c1cccc(Cl)c1F
Result: 0.9

Query: Form field - read-out: deltaTm; system: UniProt P61964; submitted item: Cc1ncsc1-c1ccc(CNC(=O)[C@@H]2C[C@@H](O)CN2C(=O)[C@@H](NC(=O)CCOCCOCCOCCOCCOCCOCCOCCOc2ccc(-c3cn4c(n3)CCC4)cc2CNC(=O)Cc2ccc(Cl)c(Cl)c2)C(C)(C)C)cc1
Result: 4.6

Query: Form field - read-out: deltaTm; system: UniProt P61964; submitted item: COc1cc(C(=O)NCCOCCOCCOCCOCCOCCOCCOCCNC(=O)c2ccc(-c3ccc(N4CCN(C)CC4)c(NC(=O)c4c[nH]c(=O)cc4C(F)(F)F)c3)cc2)ccc1NC(=O)[C@@H]1N[C@@H](CC(C)(C)C)[C@](C#N)(c2ccc(Cl)cc2F)[C@H]1c1cccc(Cl)c1F
Result: 0.3

Query: Form field - read-out: deltaTm; system: UniProt P61964; submitted item: Cc1ncsc1-c1ccc(CNC(=O)[C@@H]2C[C@@H](O)CN2C(=O)[C@@H](NC(=O)CCOCCOCCOCCOCCOc2cc(-c3cn4c(n3)CCC4)ccc2CNC(=O)Cc2ccc(Cl)c(Cl)c2)C(C)(C)C)cc1
Result: 3.4

Query: Form field - read-out: deltaTm; system: UniProt P61964; submitted item: Cc1ncsc1-c1ccc(CNC(=O)[C@@H]2C[C@@H](O)CN2C(=O)[C@@H](NC(=O)CCOCCOCCOCCOc2ccc(-c3cn4c(n3)CCC4)cc2CNC(=O)Cc2ccc(Cl)c(Cl)c2)C(C)(C)C)cc1
Result: 3.6

Query: Form field - read-out: deltaTm; system: UniProt P61964; submitted item: Cc1ncsc1-c1ccc(CNC(=O)[C@@H]2C[C@@H](O)CN2C(=O)[C@@H](NC(=O)CCOCCOCCOCCOCCOCCOCCOc2ccc(-c3cn4c(n3)CCC4)cc2CNC(=O)Cc2ccc(Cl)c(Cl)c2)C(C)(C)C)cc1
Result: 4.5
